B1: HDV Ribozyme (parent)
chain: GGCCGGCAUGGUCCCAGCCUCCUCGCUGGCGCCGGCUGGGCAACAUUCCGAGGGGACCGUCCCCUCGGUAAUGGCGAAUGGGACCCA

Variants of: B1
Procedure Summary: self-cleavage, relative activity (ratio to wild type); higher = more cleavage; co-transcriptional
Record form. Attribute: self-cleavage. Fill in for each entry.
Give a plain numeric answer without units written out.

// sample U23C A43G , its self-cleavage was 0.277

# self-cleavage (variant: G25U C66A ) is 0.172

Reported self-cleavage for C32U G38U was 0.205

# variant C30A C48A ; its self-cleavage = 0.635

G28C C33G has a reported self-cleavage of 0.0519

What the record says about C13G C19A : self-cleavage is 0.0437

Looking up C13G U23G , I found its self-cleavage recorded as 0

Value of self-cleavage reported for the variant G25A U65C is 0.208

What the record says about A16G C18G : self-cleavage is 0.111

Sure, the documented self-cleavage for G5C G50A is 0.302

Measured self-cleavage, U9C G34A : 0.208

So, C61G G74C ? Its self-cleavage was 0.225

Please fill in: self-cleavage reported for G50A C75G = 0.0852

Please fill in: self-cleavage reported for A8G U79G = 0.332

response.value for G34U G39C (field: self-cleavage) = 0.111

The reported self-cleavage of the variant C26U G80A was 0.897

GET /value?item= G6A G53C &field=self-cleavage returns 0.928

For reference, reported self-cleavage for G2A U65G stands at 0.223

Value of measured self-cleavage for the entry C64G A87U : 0.786

Entry C57A G82U — recorded self-cleavage = 0.585

Record summary for A70C G81C : reported self-cleavage = 0.201

Data point: G11C G40U ; self-cleavage = 0.189

Input U23A G74C . Output self-cleavage: 0.323

For record G10C G39A the listed self-cleavage is 0.259

self-cleavage recorded for this variant, A56U C61U , is 0.755

# self-cleavage (variant: C41A A77C ) is 0.172

Recorded result, G35U C64U , self-cleavage: 0.449

For C32G C49G the variant record lists self-cleavage as 0.135

The recorded self-cleavage for A8C C22U is 0.426

self-cleavage recorded for this variant, C24U G38A , is 0.0863

Entry G31A A42G , self-cleavage reported as 0.116

Recorded result, G10C A16U , self-cleavage: 1.49

Note to self: self-cleavage recorded for U47A G82A was 0.298

Short answer for G1C G73U : self-cleavage was 0.0426

Recorded self-cleavage (variant G55C U65G ): 1.06

Reported self-cleavage of U12A G17C : 0.0504

self-cleavage reading for U20A U47A : 0.104

Kindly note the recorded self-cleavage for C41A A51U , which is 0.981

The value of self-cleavage measured for the variant G38A C49G turned out to be 0.151

Sample A42C G81C ; self-cleavage observed: 0.0978

The variant listed as G1A C86U has a reported self-cleavage of 0.19

Recorded result, C18A G31C , self-cleavage: 0.163

Please fill in: self-cleavage reported for G2C U27A = 0

The variant listed as A8C U46A shows self-cleavage equal to 0.217

variant U12G C41G , self-cleavage observed: 0.554

self-cleavage reading for C13G C84U : 0.095
